// values below are reported TGI
# Test system: RXF 393 renal
# TEST SUMMARY: NCI tumour cell line growth inhibition, 48 h
QUANTITY: TGI

compound=NCCCOc1cc2ccccc2cc1C(=O)NCCCOc1cc2ccccc2cc1C(=O)Nc1ccc(Cl)cc1O endpoint_result="0.928 µM"
compound="CC(NC(=O)Cc1ccccc1)NC(=O)C(C)C(=O)NCc1ccccc1 (stereo unspecified)" endpoint_result="> 100 µM"
compound=COCn1cnc2c(=O)nc(SC)n(-c3ccccc3)c21 endpoint_result="> 100 µM"
compound=COc1ccc(/C(Cl)=C(\C#N)c2ccc(OC)c(OC)c2)cc1OC endpoint_result="> 100 µM"
compound=Cc1ccc2occ/c(=N\Nc3ccccc3)c2c1 endpoint_result="58.9 µM"
compound=Nc1ccc(C2=N/C(=C\c3cccc(N)c3)C(=O)O2)cc1 endpoint_result="> 100 µM"
compound="O=C1/C(=C\\c2cccc(Oc3ccccc3)c2)S(=O)(=O)C(c2ccccc2)N1c1cccc(Cl)c1 (stereo unspecified)" endpoint_result="> 100 µM"
compound=CC(=O)OCCOCNC(=S)N/N=C/c1ccc([N+](=O)[O-])s1 endpoint_result="> 100 µM"
compound=CN1CCc2c(sc3[nH]c(=S)[nH]c(=S)c23)C1 endpoint_result="> 100 µM"
compound=NCCCN(CCCN)CCc1cn(C(=O)c2ccccc2)cn1 endpoint_result="8.89 µM"
compound=Nc1nc(SCc2ccccc2Cl)c2[nH]cnc2n1 endpoint_result="> 100 µM"
compound="COc1ccc(C2(CC(C)C)CCN(S(=O)(=O)c3ccc(C)cc3)C2)cc1OC (stereo unspecified)" endpoint_result="> 100 µM"
compound=C=CC1(CC[C@]2(c3ccc(OC)c(OC)c3)C=[N+]([O-])O[C@H](O[C@@H]3CCCC[C@H]3C(C)(C)c3ccccc3)C2)OCC(C)(C)CO1 endpoint_result="> 48.4 µM"
compound=Cc1cc(NCCCCNc2ccnc3cc(Cl)ccc23)nc(Nc2ccc(C(=O)N3CCCCC3)cc2)n1 endpoint_result="2.73 µM"
compound=Cc1noc2c1-c1ccccc1C(c1ccc(Cl)cc1)=N[C@H]2CC(N)=O endpoint_result="72.7 µM"
compound=N#Cc1cc2c(cc1Cl)Sc1nnc(Nc3ccccc3)n1S2(=O)=O endpoint_result="4.48 µM"
compound=Cn1nnnc1SC(F)(F)c1nc2ccccc2o1 endpoint_result="> 100 µM"
compound="NC(CCc1ncc(C(=O)O)s1)C(=O)O (stereo unspecified)" endpoint_result="> 100 µM"
compound=NCCCn1c2c(c3ccccc3c1=O)C(=O)c1ccccc1-2 endpoint_result="6.68 µM"
compound=CN(C)CCNC(=O)c1cccc2[nH]c(-c3ccccn3)nc12 endpoint_result="> 100 µM"
compound=C(=Nc1ccc2c(c1)Cc1ccccc1-2)c1ccccn1 endpoint_result="> 100 µM"
compound="CCOC(=O)C(NC(=O)c1ccccc1)(N1CCN(c2cc3c(cc2F)c(=O)c(C(=O)O)cn3C2CC2)CC1)C(F)(F)F (stereo unspecified)" endpoint_result="36.5 µM"
compound="C1=NC(N(Cc2ccccc2)Cc2ccccc2)N(Cc2ccccc2)N1 (stereo unspecified)" endpoint_result="30.4 µM"
compound="C[n+]1c2ccccc2c(NC(CCCN=C(N)N)C(=O)O)c2ccccc21 (stereo unspecified)" endpoint_result="> 100 µM"
compound=Cn1cc(S(=O)(=O)N2CCC3=Cc4c(cnn4-c4ccc(F)cc4)C[C@]3(C(=O)c3cc(C(F)(F)F)ccn3)C2)cn1 endpoint_result="> 100 µM"
compound=OC(C/C=N/N=C/CC(O)(C(F)(F)Cl)C(F)(F)Cl)(C(F)(F)Cl)C(F)(F)Cl endpoint_result="> 10 µM"
